- Tested on: 3T3
- EXPERIMENT_SUMMARY: In Vitro 3T3 NRU Photo-toxicity Test
- ASSAY_CONTEXT: Table 3; PIF quoted to 2 significant figures

# MOLECULE, VALUE_OPERATOR, PIF
rows = [
    ("CC1=CC(=O)c2ccccc2C1=O [Vitamin K3, 2-methyl-1,4-napthoquinone]", "=", 2.3),
    ("CN(C)CCCN1c2ccccc2Sc2ccc(Cl)cc21 [Chlorpromazine]", "=", 43),
    ("Cc1cc(C)c(C(=O)P(=O)(C(=O)c2c(C)cc(C)cc2C)c2ccccc2)c(C)c1", ">", 12),
    ("CCc1ccc2c(c1)C(=O)c1ccccc1C2=O [2-ethylanthraquinone]", ">", 1000),
    ("Cc1cc(C)c(C(=O)c2ccccc2)c(C)c1 [2,4,6-trimethylbenzophenone]", "=", 28),
    ("CC(C)(O)C(=O)c1ccc(OCCO)cc1", ">", 120),
]

The values you see were collected from patent US20060229224A1.
